- Tested on: B-CLL cells
- measurementProtocol: Cytotoxicity on patient-derived B-CLL cells (MTS assay)
- conditionParameters: read-out: ED50 for cytotoxicity of CLL cells; purified disulfide dimer, dimer molecular weight
Positions of bridges follow the written chain, without caps; N, C: chain ends. Chains are numbered I, II in the order given.
experimentalReadout: EC50 (nM)
Report the value in nM with no unit label.

Req: Reported EC50 for B-CLL cells, given I: Ac-RQIKIWFQNRRMKWKKCLRVRLASHLRKLRKRLL-NH2 / II: Ac-RQIKIWFQNRRMKWKKCLRVRLASHLRKLRKRLL-NH2 (disulfide I:17-II:17) [COG445, COG112-C-C-COG112] ?
Resp: 110
